test system: Pseudomonas aeruginosa ATCC 27853 (non-MDR; QC); assay type: cell-based; settings: ATCC 27853
Ends that are not written are not given here.
Value kind: MIC (µg/mL)
Answers are plain numbers, in µg/mL.

substance="IRRIIRRIRRIIRRIRRIIRR [SEQ ID NO: 4]" target_entity="Pseudomonas aeruginosa ATCC 27853 (non-MDR; QC)" value_kind=MIC meas_value=8

Each substance below has a recorded value; state its MIC.
1. RRWVRRVRRVWRRVVRVVRRWVRR-NH2 (C-terminus assumed) [SEQ ID NO: 1]
2. IRRRIRRIRRRIRRIRRRIRR [SEQ ID NO: 3]
3. VWRWVRRVWRWVRR [SEQ ID NO: 6]

[8, 4, 16]

These data points were gathered from patent US20220249599A1.
